// reported pA50, cAMP per item
- assay-system: T1, human CRH receptor type 2 (human, UniProt Q13324 1-411)
- T1 sequence (looked up): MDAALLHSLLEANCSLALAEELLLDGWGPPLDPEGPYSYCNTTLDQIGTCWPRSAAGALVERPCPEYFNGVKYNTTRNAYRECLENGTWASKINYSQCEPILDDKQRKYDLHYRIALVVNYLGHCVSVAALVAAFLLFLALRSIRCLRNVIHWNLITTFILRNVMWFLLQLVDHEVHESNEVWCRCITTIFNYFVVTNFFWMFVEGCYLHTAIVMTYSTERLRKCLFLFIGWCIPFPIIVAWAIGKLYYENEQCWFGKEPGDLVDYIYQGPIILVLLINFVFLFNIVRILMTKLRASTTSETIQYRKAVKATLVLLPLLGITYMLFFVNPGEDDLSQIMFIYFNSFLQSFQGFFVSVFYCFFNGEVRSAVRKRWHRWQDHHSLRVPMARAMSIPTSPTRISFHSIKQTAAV
- measurement-notes: cell-based or functional assay

Ask: Provide only the value of recorded pA50, cAMP for TKFTLSLDVPTNIMNLLFNIAKAKNLRCQAAANAHLMAQI (NES-PEG MW12000 on Cys 28; C-terminal amide) [Pegylated Cys-variant CRHR2 peptide agonist (NES-PEG MW12000), SEQ ID NO: 97]
Result: ~9 -log M

Ask: Provide only the value of recorded pA50, cAMP for TKFTLSCDVPTNIMNLLFNIAKAKNLRAQAAANAHLMAQI (NES-PEG (about 20 kDa) on Cys 7; C-terminal amide) [Pegylated Cys-variant CRHR2 peptide agonist (NES linker, PEG about 20 kDa), SEQ ID NO: 61]
Result: ~6.22 -log M

Ask: Provide only the value of recorded pA50, cAMP for TKFTLSLDVPTNIMNLLCNIAKAKNLRAQAAANAHLMAQI (NES-PEG (about 20 kDa) on Cys 18; C-terminal amide) [Pegylated Cys-variant CRHR2 peptide agonist (NES linker, PEG about 20 kDa), SEQ ID NO: 72]
Result: 8.04 -log M
